B1: KRT15 (parent)
chain: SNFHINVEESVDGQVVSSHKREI

Variants of: B1
Procedure summary: protein stability index of a GFP-peptide fusion (GPS, HEK-293T) (PSI 1-6); higher = more stable;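 further: lentivirally expressed fusions sorted by FACS into six bins by GFP to DsRed ratio, PSI derived from sequencing read proportions per bin multiplied by bin number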
Measurement conditions: c terminus: native
Rule: 1 for protein stability index not less than 2, -1 for anything less.

Please review the entries below; each comes with its answer.
>>> group_label("F3S")
-1
>>> group_label("K20V")
1

Say whether S1H shows protein stability index of 2 or more.
1

Reported protein stability index at or above 2? G13S
-1

Check the entry F3I : does protein stability index equal or exceed 2?
1
